TGI listing for selected compounds.
Tested on: A498 renal
Experiment: NCI tumour cell line growth inhibition, 48 h

{"columns": ["compound", "TGI"],
 "data": [
  ["Clc1c2ccccc2nc2c1[nH]c1ccccc12", "> 100 µM"],
  ["CCOC(=O)C1(Br)S(=O)(=O)OCCOS1(=O)=O", "> 100 µM"],
  ["N#Cc1ccc(C2NN=CC23C(=O)c2ccccc2OC3c2ccccc2)cc1 (stereo not given)", "> 100 µM"],
  ["COc1cc2c[n+](C)c3c(c2cc1OC)Cc1cc2c(cc1-3)OCO2", "> 100 µM"],
  ["O=C1CCCc2ccc3c(c21)CC1(Cc2ccccc2C1)C3", "> 100 µM"],
  ["CC1(C)N=C(N)N=C(N)N1c1cccc(Br)c1", "> 100 µM"],
  ["COc1cnc2c(c1)C(=O)c1c-2n(CCCN2CCNCC2)c(=O)c2cc([N+](=O)[O-])ccc12", "2.19 µM"],
  ["O=C(O)Cc1cccc2c(=O)c3cccc([N+](=O)[O-])c3oc12", "> 100 µM"],
  ["COc1cc(/C=C/C(=O)c2c(C)nc3ccccc3c2C)ccc1OCCCN1CCN(C(=O)c2ccco2)CC1", "17.7 µM"],
  ["Cc1nnc(Sc2nc(C#N)c(C#N)nc2Sc2nnc(C)s2)s1", "53.3 µM"],
  ["COC(=O)C(/C(=N\\NC(N)=S)C(=O)Nc1ccccc1[N+](=O)[O-])c1cnc2ccccc2n1 (stereo not given)", "> 100 µM"],
  ["c1ccc2c(NCCCCCCNc3cccc4ccccc34)cccc2c1", "> 100 µM"],
  ["Cc1ccc2nc(NC(=O)/C(=N\\NC(=S)NN)C3C(=O)NC(=S)NC3=O)sc2c1", "> 100 µM"],
  ["Cc1ccc(-c2cc(-c3ccco3)c(C#N)c(=O)n2C2OC(CO)C(O)C(O)C2O)cc1 (stereo not given)", "50.9 µM"],
  ["CCCCCCCCC/C=C1/CC(CO)(COC(=O)c2ccccc2)OC1=O (stereo not given)", "26.4 µM"],
  ["COc1cccc(-c2c(-c3ccccc3)[nH]c(C)c2C(=O)ONC(=O)c2ccccc2)c1", "28.5 µM"],
  ["CC[C@H](C)[C@H](NC(=O)[C@@]1(O)[C@H](O)[C@]2(CC)C=CCN3CC[C@@]4(c5cc(Br)c(OC)cc5N(C)[C@@H]14)[C@@H]32)C(=O)OC", "> 100 µM"],
  ["CC[C@@]1(CCC(=O)NCCc2c[nH]c3ccccc23)CCC(=O)N2CCc3c([nH]c4ccccc34)[C@H]21", "> 100 µM"],
  ["S=C(N1CCN(c2ccccc2)CC1)N1CCN(c2ccccc2)CC1", "> 100 µM"],
  ["S=C=NC1CCC(c2cc3ccccc3s2)(N2CCCCC2)CC1 (stereo not given)", "5.1 µM"]
]}
